Test: NCI Yeast Anticancer Drug Screen. Data for the rad50 strain (AID 155);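 note: 0% = growth of vehicle-only cultures of the same strain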
Conditions: S. cerevisiae rad50 strain growth inhibition; at 50.0 µM; active compounds read high
The panel holds about 79,000 compounds, 15% with a hit somewhere; the sample as a whole holds those more often.
Collected growth inhibition values appear next to each entry.

compound	unit descriptor	growth inhibition
OCC(S)CS (stereo unspecified)	%	17.4
O=N[O-].[Co].[NH-]CC[NH-].[NH-]CC[NH-].[NH2-]	%	5.35
N[C@@H]1CCCC[C@@H]1N.O=P([O-])([O-])CN(CP(=O)([O-])[O-])CP(=O)([O-])[O-].[Pt+2]	%	-5.05
O=C1CCN(C2(c3ccccc3)CCCCC2)CC1	%	3.85
O=P(CCP(=O)(c1ccccc1)c1ccccc1)(c1ccccc1)c1ccccc1	%	-17.6
CC1CC(C)(C)[N+](C)(CCC(C(N)=O)(c2ccccc2)c2ccccc2)C1 (stereo unspecified)	%	-8.2
NC(N)=N/N=C1\C(=O)N(c2cccc([N+](=O)[O-])c2)C(=O)C1C(=O)Nc1cccc([N+](=O)[O-])c1 (stereo unspecified)	%	-17.9
C/C(CCl)=N\NC1=NC2(CCCCC2)P(=O)(NNc2ncccn2)S1 (stereo unspecified)	%	3.7
CCC1(C/C=C/Cl)C(=O)NC(=O)NC1=O	%	7.65
CP(C)CC[PH+](CC[PH+](C)C)CC[PH+](C)C.[C-]#[O+].[C-]#[O+].[W]	%	-1.25
CCOC(C(=O)O)(c1ccccc1)c1ccccc1	%	-0.55
O=C(Cc1ccc2c(c1)OCO2)c1cn(C(=O)Cc2ccc3c(c2)OCO3)c2ccccc12	%	18.7
CC1(C)N=C(N)N=C(N)N1c1ccc(OCCOc2ccc(S(=O)(=O)F)cc2)cc1	%	-11.1
CCN(CC)CC#N	%	3.8
COC1OCC(N=[N+]=[N-])C(OC)C1O (stereo unspecified)	%	18.8
O=P1(Oc2ccccc2)N(CCCl)CCN1c1ccccc1 (stereo unspecified)	%	-12.2
CC[N+]1(CC)CC[N+](CC)(CC)CC1 (tested in a mixture with another compound)	%	6.1
ClCCN(CCCN(CCCl)c1ccccc1)c1ccccc1	%	11.8
CCN(CC)C1CCCCC1	%	19.8
Cc1cc(C(C)(C)C)ccc1O	%	27.4
O=C(CF)Nc1ccc([N+](=O)[O-])cc1	%	-12.4
CC(=O)C(C(C)=O)C(C)=O.[Cr]	%	4.85
NNC(=O)Nc1ccc([N+](=O)[O-])cc1[N+](=O)[O-]	%	63.8
O=C1NC(=O)C(O)(C2=C(O)CCC2=O)C(=O)N1	%	12.8
O=Cc1ccccc1O.[Nd]	%	-0.65
CN1CCC2(CC1)COCc1ccccc12	%	-9.4
Nc1ccc([N+](=O)[O-])cc1	%	-11.2
COc1ccc(-n2c(C)nc3ccccc3c2=O)cc1CN(CCCl)CCCl	%	4.45
OCCC[n+]1cccc2ccccc21	%	-11.2
Cc1ccc(C(=O)O[C@H](C(=O)O)[C@H](OC(=O)c2ccc(C)cc2)C(=O)O)cc1	%	18.1
C#CCOCC(O)C[As](=O)(O)c1cccc(Cl)c1 (stereo unspecified)	%	5.85
CCC(CCl)NC(CC(C)C)CC(C)C (stereo unspecified)	%	-1.95
CP1(=O)CC23CCCCC2(C1)O3 (stereo unspecified)	%	2
CCCOP1(=O)C=C(O)C(Cl)=C(C)C1 (stereo unspecified)	%	-32.5
COC(=O)CCc1ccc(NP(=O)(Oc2ccccc2)N(CCCl)CCCl)cc1 (stereo unspecified)	%	13.3
COc1ccc(CC(C)=O)cc1OC	%	-10.9
CCCOC(=O)C(C)(C)C(OP(OCCC)OCCC)=C(C)C	%	-7.35
Nc1cccc2ccccc12	%	17.1
c1ccc(C2(N3CCOCC3)CSC2)cc1	%	-6.05
CCCC(NC(=O)CCl)C(=O)O (stereo unspecified)	%	-13.1
O=C1NC(=S)NC(=O)C1=Cc1ccncc1	%	-19
C[N+]1=C(c2cccnc2/C=N/O)OCC1(C)C	%	1.3
C[N+]1(C)C2CCC1CC(OC(=O)C(CO)c1ccccc1)C2 (stereo unspecified)	%	18.7
c1ccc([Se+](c2ccccc2)c2ccccc2)cc1	%	16.8
O=C1NC(=S)NC(=O)C1=Cc1cc2c(cc1[N+](=O)[O-])OCO2	%	0.45
O=NN(Cc1ccccc1)Cc1ccccc1	%	2.55
O=[N+]([O-])c1ccc(P2(=O)Nc3ccccc3N2)cc1	%	-21.9
CCCC[N+]1(C)CCCC1c1cccnc1 (stereo unspecified)	%	-15.5
CC1(C)C(=O)N(O)C(C)(C)N1N=O	%	1.95
CCOC(=O)/C(C#N)=C(/SC)N1CC1	%	1.9
CCCC1(C(C)C)C(=O)NC(=S)NC1=O	%	10.7
